Entries and their Activity
- System: Mus musculus
- measurement protocol: Effect on uterus weight in ovariectomized mouse at 0.1103 mmol/kg, ip once daily for 4 weeks
- Assay type: functional
Where a SMILES comes first, the peptide text is derived from it. The star is where a group is joined. Succinyl(O17-estradiol) = C[C@]12CC[C@@H]3c4ccc(O)cc4CC[C@H]3[C@@H]1CC[C@@H]2OC(=O)CCC(=O)*; X1 = C[C@]12CC[C@@H]3c4ccc(OCC(=O)*)cc4CC[C@H]3[C@@H]1CCC2O
Give the value; after it, write the unit.

- compound: "C[C@]12CC[C@@H]3c4ccc(O)cc4CC[C@H]3[C@@H]1CC[C@@H]2O [ESTRADIOL]"
  measurement target: "Mus musculus"
  Activity: "177.1 mg"

Task: State the recorded Activity for this entry: C[C@]12CC[C@@H]3c4ccc(OCC(=O)N[C@@H](CCCNC(=N)N)C(=O)NCC(=O)N[C@@H](CC(=O)O)C(=O)N[C@@H](CO)C(=O)O)cc4CC[C@H]3[C@@H]1CCC2O (stereo partly drawn) (X1-RGDS-OH)
Result: 42.5 mg

Task: Would you kindly share the measured Activity for CC(C)[C@H](NC(=O)[C@H](CC(=O)O)NC(=O)CNC(=O)[C@H](CCCNC(=N)N)NC(=O)CCC(=O)O[C@H]1CC[C@H]2[C@@H]3CCc4cc(O)ccc4[C@H]3CC[C@]12C)C(=O)O ({Succinyl(O17-estradiol)}-RGDV-OH) ?
Result: 69.4 mg
